Source: PubChem BioAssay (NCI)

Catalogue of TGI readings, one per entry.
system: PC-3 prostate; assay: NCI tumour cell line growth inhibition, 48 h

Some molecules with known TGI results, for comparison:
[[record]]
molecule = "NC(=S)Nc1ccc2c(c1)oc1ccccc12"
experimental_system = "PC-3 prostate"
assay_metric = "TGI"
endpoint_value = "> 100 µM"

[[record]]
molecule = "N#C/C(=C/n1c(=S)[nH]c2ccccc21)C(N)=O"
experimental_system = "PC-3 prostate"
assay_metric = "TGI"
endpoint_value = "> 100 µM"

[[record]]
molecule = "N#C/C=c1/c2ccccc2n2nc3ccccc3c12"
experimental_system = "PC-3 prostate"
assay_metric = "TGI"
endpoint_value = "> 100 µM"


Let's switch to this molecule now.
For reference, reported TGI for CC(CN(C)C)S(=O)(=O)c1ccc(-c2cnc(N)c(C(=O)Nc3ccccc3)n2)cc1 (centres undefined) stands at > 73.8 µM
